target_system: Na^+, K^+ -ATPase receptor (Homo sapiens, UniProt P05023)
test_name: displacement of the specific 3H-ouabain binding from the Na+,K+-ATPase receptor
condition_summary: displacement of specific 3H-ouabain binding; read-out: Binding ^3 H-Ouab. Displacement log IC50 (converted)
readout_kind: IC50 (nM)
Just the number in nM, nothing appended.

Return reported IC50; argument: C[C@]12CC[C@H](O)C[C@H]1CC[C@@H]1[C@@H]2CC[C@]2(C)[C@@H](/C=C/C=N/NC(N)=S)CC[C@]12O 3980

Return reported IC50; argument: CN(C)CCCON=C/C=C/[C@H]1CC[C@]2(O)[C@@H]3CC[C@@H]4C[C@@H](O)CC[C@]4(C)[C@H]3CC[C@]12C (mixture of isomers) 63.1

Return reported IC50; argument: C[C@]12CC[C@H](O)C[C@H]1CC[C@@H]1[C@@H]2CC[C@]2(C)[C@@H](/C=C/C=N/NC3=NCCCN3)CC[C@]12O 39.8

Return reported IC50; argument: CN(C)CCON=CC[C@H]1CC[C@]2(O)[C@@H]3CC[C@@H]4C[C@@H](OCCN5CCCC5)CC[C@]4(C)[C@H]3CC[C@]12C (mixture of isomers) 31.6

Return reported IC50; argument: C[C@]12CC[C@H](O)C[C@H]1CC[C@@H]1[C@@H]2CC[C@]2(C)[C@@H](CC=NNC(=N)N)CC[C@]12O (mixture of isomers) 79.4

Return reported IC50; argument: CN(C)CCON=C/C=C/[C@H]1CC[C@]2(O)[C@@H]3CC[C@@H]4C[C@@H](OCCN5CCCC5)CC[C@]4(C)[C@H]3CC[C@]12C (mixture of isomers) 20

Return reported IC50; argument: C[C@]12CC[C@H](O)C[C@H]1CC[C@@H]1[C@@H]2CC[C@]2(C)[C@@H](CC=NNC3=NCCN3)CC[C@]12O (mixture of isomers) 126

Return reported IC50; argument: C[C@]12CC[C@H](O)C[C@H]1CC[C@@H]1[C@@H]2CC[C@]2(C)[C@@H](/C=C/C=C/C=N/N=C(N)N)CC[C@]12O 501

Return reported IC50; argument: CN(C)CCNC(=N)N/N=C/C=C/[C@H]1CC[C@]2(O)[C@@H]3CC[C@@H]4C[C@@H](O)CC[C@]4(C)[C@H]3CC[C@]12C 251

Return reported IC50; argument: C[C@]12CC[C@H](O)C[C@H]1CC[C@@H]1[C@@H]2CC[C@]2(C)[C@@H](CC=NOCCN)CC[C@]12O (mixture of isomers) 25.1

Return reported IC50; argument: C[C@]12CC[C@H](OCCN3CCCC3)C[C@H]1CC[C@@H]1[C@@H]2CC[C@]2(C)[C@@H](/C=C/C=NNC(=N)N)CC[C@]12O 20

Return reported IC50; argument: CN(C)CCON=CC[C@H]1CC[C@]2(O)[C@@H]3CC[C@@H]4C[C@H](O)CC[C@]4(C)[C@H]3CC[C@]12C (mixture of isomers) 100

---

target_system: purified Na^+,K^+ -ATPase (Homo sapiens)
test_name: inhibition of the activity of the purified Na+,K+-ATPase (% hydrolysis of 32P-ATP)
Assay type: biochemical
condition_summary: read-out: Inhibitory Activity log IC50 (converted)
For each entry below, report its IC50 value.
Just the number in µM, nothing appended.

Return reported IC50; argument: C[C@]12CC[C@H](O)C[C@H]1CC[C@@H]1[C@@H]2CC[C@]2(C)[C@@H](/C=C/C=N/NC(=N)Nc3ccccc3)CC[C@]12O 10

Return reported IC50; argument: C[C@]12CC[C@H](O)C[C@H]1CC[C@@H]1[C@@H]2CC[C@]2(C)[C@@H](/C=C/C=N/NC(N)=O)CC[C@]12O 25.1

Return reported IC50; argument: CN(C)CCNC(=N)N/N=C/C=C/[C@H]1CC[C@]2(O)[C@@H]3CC[C@@H]4C[C@@H](O)CC[C@]4(C)[C@H]3CC[C@]12C 3.16

Return reported IC50; argument: C[C@]12CC[C@H](O)C[C@H]1CC[C@@H]1[C@@H]2CC[C@]2(C)[C@@H](/C=C/C=N\NC3=NCCCN3)CC[C@]12O 7.94

Return reported IC50; argument: C[C@]12CC[C@H](O)C[C@H]1CC[C@@H]1[C@@H]2CC[C@]2(C)[C@@](O)(/C=C/C=N/NC3=NCCN3)CC[C@]12O 7.94

Return reported IC50; argument: C[C@]12CC[C@H](O)C[C@H]1CC[C@@H]1[C@@H]2CC[C@]2(C)[C@@H](/C=C/C=N\NC(=N)N)CC[C@]12O 3.16
